Molecular target: Recombinant human His-tagged Kat6a protein (amino acids 194-810) (Homo sapiens (Human), UniProt Q92794)
Sequence (Q92794 194-810): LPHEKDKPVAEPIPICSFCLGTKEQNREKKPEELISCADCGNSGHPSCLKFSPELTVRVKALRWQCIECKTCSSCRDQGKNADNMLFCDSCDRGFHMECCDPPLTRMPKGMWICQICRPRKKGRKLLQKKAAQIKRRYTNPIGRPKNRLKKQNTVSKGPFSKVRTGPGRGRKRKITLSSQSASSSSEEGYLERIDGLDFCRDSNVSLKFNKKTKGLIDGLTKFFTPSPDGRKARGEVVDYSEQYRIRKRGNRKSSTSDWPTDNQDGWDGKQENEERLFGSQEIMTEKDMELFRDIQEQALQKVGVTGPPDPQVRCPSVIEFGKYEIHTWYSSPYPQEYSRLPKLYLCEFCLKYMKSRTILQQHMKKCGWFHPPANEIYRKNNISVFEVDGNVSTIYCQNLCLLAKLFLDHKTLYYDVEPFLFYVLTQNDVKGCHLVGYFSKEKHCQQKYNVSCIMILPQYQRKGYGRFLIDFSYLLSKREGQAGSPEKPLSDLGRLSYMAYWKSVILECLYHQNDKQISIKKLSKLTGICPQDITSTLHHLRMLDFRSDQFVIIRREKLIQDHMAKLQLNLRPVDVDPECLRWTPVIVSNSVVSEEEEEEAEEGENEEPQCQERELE
Experiment: Kat6a activity assay (TR-FRET, acetylation of biotinylated Histone-H4-derived peptide)
Type: biochemical
Conditions: 60 mins at 22° C., read-out: KAT6A-DPF/HAT domain IC50 [mol/l] (arithmetic mean)
pIC50: −log10 of the molar value.
Outcome: yes (1) for pIC50 of at least 6; no (0) for anything lower.

Worked examples follow.
CC1CCCN1c1ccc2cc(C(=O)NS(=O)(=O)c3ccccc3-c3ccccc3)oc2c1 (racemic): no (0)
CCCOc1cccc(CC)c1S(=O)(=O)NC(=O)c1cc2ccc(N(C)C)cc2o1: yes (1)
CN(C)c1cc(F)c2cc(C(=O)NS(=O)(=O)c3ccccc3-c3ccccc3)oc2c1: yes (1)
CN(C)c1ccc2cc(C(=O)NS(=O)(=O)c3ccccc3-c3ccccc3)n(C)c2c1: no (0)
COc1cccc(S(=O)(=O)N(C)C)c1S(=O)(=O)NC(=O)c1cc2ccc(N(C)C)cc2o1: yes (1)
CCCOc1cccc(C)c1S(=O)(=O)NC(=O)c1cc2ccc(N(C)C)cc2o1: yes (1)
CCOc1ccccc1S(=O)(=O)NC(=O)c1cc2ccc(N(C)C)cc2o1 [Example 19]: yes (1)

Field: next compound
Input: Entry "CCOc1ccc(C(C)C)cc1S(=O)(=O)NC(=O)c1cc2c(F)cc(N(C)C)cc2o1" : is its pIC50 no less than 6?
Output: yes (1)

###

Tested on: ZR-75-1 cells
Experiment: Proliferation assay ZR-75-1 (Alamar Blue, 144 h)
Type: cell-based
Conditions: Homo sapiens, ZR-75-1, 144 h, arithmetic mean, read-out: ZR75-1 proliferation assay, EC50 [M] (arithmetic mean)
Metric: EC50 (M)
Please respond with the number in M and leave the unit unwritten.

Completed entries (count: 5):
CN(C)c1ccc2cc(C(=O)NS(=O)(=O)c3cccc4ccc(Cl)nc34)oc2c1: 6.98e-08
COc1cccc(C(F)(F)F)c1S(=O)(=O)NC(=O)c1cc2ccc(N(C)C)cc2o1: 1.05e-07
Cc1ccc(S(=O)(=O)NC(=O)c2cc3ccc(N(C)C)cc3o2)c(OC(F)F)c1: 6.97e-07
CCCCOc1ccccc1S(=O)(=O)NC(=O)c1cc2ccc(N(C)CCOC)cc2o1: 6.05e-06
CCS(=O)(=O)NC(=O)c1cc2ccc(N(C)C)cc2o1: 1.77e-05

Input: # input compound: "CC(C)Oc1cccc(Cl)c1S(=O)(=O)NC(=O)c1cc2ccc(N(C)C)cc2o1" ; wanted: its EC50
Output: 4.45e-07

Input: Also check "CN(C)c1ccc2cc(C(=O)NS(=O)(=O)c3c(F)cccc3C3CCC3)oc2c1"
Output: 7.93e-06

###

Test system: ZR-75-1 cells
Experiment: Proliferation assay ZR-75-1 (Alamar Blue, 144 h)
Assay type: cell-based
Details: Homo sapiens, ZR-75-1, 144 h, arithmetic mean, read-out: ZR75-1 proliferation assay, EC50 [M] (arithmetic mean)
Metric: log10 EC50 (log10 of the value in M)
Values reflect log10 of reported EC50 (M).

COc1cc(C)c(Cl)cc1S(=O)(=O)NC(=O)c1cc2ccc(N(C)C)cc2o1: -6.30
COCCN(C)c1ccc2cc(C(=O)NS(=O)(=O)c3ccc(C)cc3-c3ccccc3)oc2c1: -5.21

Input: # input molecule: "CN(C)c1cc(C(F)(F)F)c2cc(C(=O)NS(=O)(=O)c3ccccc3)oc2c1" ; wanted: its log10 EC50
Output: -5.95

Input: Also check "O=C(NS(=O)(=O)c1ccccc1-c1ccccc1)c1cc2ccc(N3CCCC3=O)cc2o1"
Output: -5.96

Input: Also check "CN(C)c1ccc2cc(C(=O)NS(=O)(=O)c3ccccc3-c3cccc(Cl)c3)sc2c1"
Output: -5.29

Input: Also check CC(Oc1ccccc1S(=O)(=O)NC(=O)c1cc2ccc(N(C)C)cc2o1)C(F)(F)F (racemic)
Output: -6.84

Input: Also check "CCN(C)c1ccc2cc(C(=O)NS(=O)(=O)c3ccccc3)oc2c1"
Output: -4.97

Input: Also check "CC(C)Nc1cccc(F)c1S(=O)(=O)NC(=O)c1cc2ccc(N(C)C)cc2o1"
Output: -5.12

Input: Also check "CCc1ccccc1S(=O)(=O)NC(=O)c1cc2ccc(N(C)C)cc2o1"
Output: -5.52

Input: Also check "CN(C)c1ccc2cc(C(=O)NS(=O)(=O)c3ccccc3OCC(F)(F)F)oc2c1"
Output: -6.78

Input: Also check "CN(C)c1ccc2cc(C(=O)NS(=O)(=O)c3ccccc3OC3CC3)oc2c1"
Output: -7.35

Input: Also check "CN1Cc2cccc(S(=O)(=O)NC(=O)c3cc4ccc(N(C)C)cc4o3)c2C1=O"
Output: -6.14

Input: Also check "Cc1cnc(Cl)c(S(=O)(=O)NC(=O)c2cc3ccc(N(C)C)cc3o2)c1"
Output: -5.15

Input: Also check "CN(C)c1ccc2cc(C(=O)NS(=O)(=O)c3cccc4cccnc34)oc2c1"
Output: -6.61

Input: Also check "CC(C)c1ccc(OCc2ccccc2)c(S(=O)(=O)NC(=O)c2cc3ccc(N(C)C)cc3o2)c1"
Output: -7.01

Input: Also check "CCOc1ncccc1S(=O)(=O)NC(=O)c1cc2ccc(N(C)C)cc2o1"
Output: -6.39

Input: Also check "CN(C)c1ccc2cc(C(=O)NS(=O)(=O)c3cccnc3Cl)oc2c1"
Output: -5.30

Input: Also check "CN(C)c1ccc2cc(C(=O)NS(=O)(=O)c3cc(C(C)(C)C)ccc3OCC3CC3)oc2c1"
Output: -7.42

Input: Also check "CN(C)c1ccc2cc(C(=O)NS(=O)(=O)c3ccccc3-c3cccc(Cl)c3)oc2c1"
Output: -6.81

Input: Also check "CN(C)c1ccc2cc(C(=O)NS(=O)(=O)c3ccccc3OCCN)oc2c1"
Output: -5.02

Input: Also check "CCOc1ccccc1S(=O)(=O)NC(=O)c1cc2c(C(F)(F)F)cc(N(C)C)cc2o1"
Output: -6.06

Input: Also check "CCOc1ccccc1S(=O)(=O)NC(=O)c1cc2ccc(N(C)C)cc2o1"
Output: -7.23

###

System: ZR-75-1 cells
Assay: Proliferation assay ZR-75-1 (Alamar Blue, 144 h)
Assay type: cell-based
Details: Homo sapiens, ZR-75-1, 144 h, arithmetic mean, read-out: ZR75-1 proliferation assay, EC50 [M] (arithmetic mean)
Metric: EC50 (M)
Please respond with the number in M and leave the unit unwritten.

Completed entries (count: 3):
Cc1ccc2cccc(S(=O)(=O)NC(=O)c3cc4c(C(F)(F)F)cc(N(C)C)cc4o3)c2n1 [Example 196]: 2.12e-06
CCOc1ccccc1S(=O)(=O)NC(=O)c1cc2cc(C(F)(F)F)c(N(C)C)cc2o1 [Example 201]: 2.9e-06
COc1ccc2cccnc2c1S(=O)(=O)NC(=O)c1cc2ccc(N(C)C)cc2o1 [Example 70]: 1.63e-07

Please turn your attention to the following entry.
Input: # input compound: CCCOc1ccccc1S(=O)(=O)NC(=O)c1cc2ccc(N(C)C)cc2o1 [Example 23] ; wanted: its EC50
Output: 2.34e-08

###

Molecular target: Recombinant human His-tagged Kat6a protein (amino acids 194-810) (Homo sapiens (Human), UniProt Q92794)
Experiment: Kat6a activity assay (TR-FRET, acetylation of biotinylated Histone-H4-derived peptide)
Settings: 60 mins at 22° C., read-out: KAT6A-DPF/HAT domain IC50 [mol/l] (arithmetic mean)
Metric: IC50 (µM)
Please respond with the number in µM and leave the unit unwritten.

Completed entries (count: 7):
CCOc1c(F)cccc1S(=O)(=O)NC(=O)c1cc2ccc(N(C)C)cc2o1: 0.335
CN(C)c1ccc2cc(C(=O)NS(=O)(=O)c3ccc(Cl)cc3Cl)oc2c1: 0.134
CC(C)Cc1ccc2cccc(S(=O)(=O)NC(=O)c3cc4ccc(N(C)C)cc4o3)c2n1: 0.1
CN(C)c1ccc2cc(C(=O)NS(=O)(=O)c3ccccc3OCCNC(=O)OC(C)(C)C)oc2c1: 0.294
C[C@H](Oc1cccc(OC2CCC2)c1S(=O)(=O)NC(=O)c1cc2ccc(N(C)C)cc2o1)C(F)(F)F (single isomer, unassigned): 0.0444
Cc1cc(Cn2cccn2)cc(S(=O)(=O)NC(=O)c2cc3ccc(N(C)C)cc3o2)c1C: 0.177
CCOc1ccc(C(F)(F)F)cc1S(=O)(=O)NC(=O)c1cc2ccc(N(C)C)cc2o1: 0.054

Please turn your attention to the following entry.
Input: # input compound: "CN(C)c1ccc2cc(C(=O)NS(=O)(=O)c3ccccc3F)oc2c1" ; wanted: its IC50
Output: 0.417

###

Listed here: items and their measured EC50.
Tested on: ZR-75-1 cells
Assay: Proliferation assay ZR-75-1 (Alamar Blue, 144 h)
Format: cell-based
Settings: Homo sapiens, ZR-75-1, 144 h, arithmetic mean, read-out: ZR75-1 proliferation assay, EC50 [M] (arithmetic mean)

Nc1ccc2cc(C(=O)NS(=O)(=O)c3ccccc3-c3ccccc3)oc2c1: > 2e-05 M

Input: # input compound: "CN(C)c1ccc2cc(C(=O)NS(C)(=O)=O)oc2c1" ; wanted: its EC50
Output: > 2e-05 M

Input: Also check "CCOc1ccccc1S(=O)(=O)NC(=O)c1cc2ccc(N(C)c3ccccc3)cc2o1"
Output: > 2e-05 M
